Measured values drawn from ChEMBL document CHEMBL3988442 for this set.

# Test system: Mycobacterium tuberculosis
# Assay name: Cornell M. t heat shock assay; further: in the data most compounds retested in dose-response had high values
# Assay type: functional, organism-based
# Parameters: dose or concentration left out as unconfirmed
Screen size: about 69,000 compounds; about 950 (1.4%) showed an effect of 50% or more. The full list was thinned out, with strong results kept by preference.
Measurement type: Percent Effect (%)
Lab book: enter the figure in %, no units written.

# Molecule, Assay system, Units label, Percent Effect
records = [
    ("Cc1ccoc1C(=O)N1C[C@H](OCc2cccnc2)[C@H]2OCCC[C@H]21.O=C(O)C(F)(F)F", "Mycobacterium tuberculosis", "%", -24.06),
    ("Fc1cccc(N2C[C@H]3CCN(c4cccnc4)C[C@H]3C2)c1.O=C(O)C(F)(F)F", "Mycobacterium tuberculosis", "%", 98.87),
    ("CO[C@@H]1CO[C@@]2(CCCN(Cc3nc(C)cs3)C2)C1.O=C(O)C(F)(F)F", "Mycobacterium tuberculosis", "%", 0.7459),
    ("O=C(Nc1cccnc1)[C@H]1CO[C@H]2CCNC[C@H]2C1.O=C(O)C(F)(F)F.O=C(O)C(F)(F)F", "Mycobacterium tuberculosis", "%", -15.71),
]

The value of Percent Effect measured for the molecule CC(C)n1ccnc1CN1CCOC(CC2CCCCC2)C1 (centres undefined) turned out to be 50.37

The reported value for O=C(O)C(F)(F)F.O=C(c1ccc(F)cc1)N1C[C@@H]2CCN(c3cccnc3)C[C@@H]2C1 in terms of Percent Effect is -7.242

For this molecule ( CC(C)n1ccnc1CN1CCCN(C(=O)CC2CCCO2)CC1 (centres undefined) ), measured Percent Effect is -7.243

For COCc1ncn2c1CN(C(=O)c1ccc3ccccc3n1)CC2.O=C(O)C(F)(F)F the molecule record lists Percent Effect as -56.59

Lab note: O=C(C1CCC1)N1C[C@@H]2CCN(c3cccnc3)C[C@@H]2C1.O=C(O)C(F)(F)F gave Percent Effect of -23.64
